Test system: 276233-004-R-J1-PDC KRAS spheroids with HUVEC/MSC, viability
Assay: Anticancer human tumor 276233-004-R-J1-PDC patient-derived colon adenocarcinoma cell line growth inhibition [KRAS2]
Conditions: curve of compound
pIC50: −log10 of the molar value.
Catalogue of molecules with associated pIC50
endpoint: pIC50

1. CC1(C)CCC(CN2CCN(c3ccc(C(=O)NS(=O)(=O)c4ccc(NCC5CCOCC5)c([N+](=O)[O-])c4)c(Oc4cnc5[nH]ccc5c4)c3)CC2)=C(c2ccc(Cl)cc2)C1 < 5.00
2. Cn1ncnc1[C@H]1c2n[nH]c(=O)c3cc(F)cc(c23)N[C@@H]1c1ccc(F)cc1 < 7.00
3. COc1cc2nccc(Oc3ccc(NC(=O)C4(C(=O)Nc5ccc(F)cc5)CC4)cc3)c2cc1OC < 5.00
4. COc1cc(Nc2ncc3c(n2)-c2ccc(Cl)cc2C(c2c(F)cccc2OC)=NC3)ccc1C(=O)O < 5.00

----------
Each item that follows carries a reported IC50.
Test system: 276233-004-R-J1-PDC KRAS spheroids with HUVEC/MSC, viability
Experiment: Anticancer human tumor 276233-004-R-J1-PDC cell line growth inhibition [KRAS2];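 also: cells exposed to agents for seven days before viability read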
Settings: curve of compound

compound	IC50
CC(C)n1nc(-c2ccc3oc(N)nc3c2)c2c(N)ncnc21	> 0.1 µM
CC(C)NCC(C(=O)N1CCN(c2ncnc3c2C(C)CC3O)CC1)c1ccc(Cl)cc1 (centres undefined)	> 10 µM
CC(=O)Nc1cccc(-n2c(=O)n(C3CC3)c(=O)c3c(Nc4ccc(I)cc4F)n(C)c(=O)c(C)c32)c1	9.31 nM [middle of 5 runs]
CC(=O)OC12COC1CC(O)C1(C)C(=O)C(O)C3=C(C)C(OC(=O)C(O)C(NC(=O)OC(C)(C)C)c4ccccc4)CC(O)(C(OC(=O)c4ccccc4)C21)C3(C)C (centres undefined)	> 3.16 µM

----------
Readings of viability, T/C for the listed compounds
Tested on: 276233-004-R-J1-PDC KRAS spheroids with HUVEC/MSC, viability
Experiment: Anticancer human tumor 276233-004-R-J1-PDC cell line growth inhibition [KRAS2];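 also: cells exposed to agents for seven days before viability read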;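 as to viability, T/C: 100% = DMSO vehicle control wells and lower values mean fewer viable cells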
Conditions: second compound 3.16 µM; first compound 0.1 µM; stronger effect = lower value

compound	viability, T/C / %
COC(=O)c1ccc2c(C(=Nc3ccc(N(C)C(=O)CN4CCN(C)CC4)cc3)c3ccccc3)c(O)[nH]c2c1 + C=CC(=O)N1CCN(c2nc(OCC3CCCN3C)nc3c2CCN(c2cccc4cccc(C)c24)C3)CC1CC#N	46.6
O=C(c1cc(Cc2n[nH]c(=O)c3ccccc23)ccc1F)N1CCN(C(=O)C2CC2)CC1 + COc1cc2nc(C)nc(NC(C)c3cc(N)cc(C(F)(F)F)c3)c2cc1OC1CCOC1	77.8
CN(C)C/C=C/C(=O)Nc1cc2c(Nc3ccc(F)c(Cl)c3)ncnc2cc1O[C@H]1CCOC1 + CC1OCC2(CCN(c3cnc(Sc4ccnc(N)c4Cl)c(N)n3)CC2)C1N	48.8
CC(C)NCC(C(=O)N1CCN(c2ncnc3c2C(C)CC3O)CC1)c1ccc(Cl)cc1 (stereo unspecified) + C=CC(=O)N1CCN(c2nc(OCC3CCCN3C)nc3c2CCN(c2cccc4cccc(C)c24)C3)CC1CC#N	46.9
CC(C)n1nc(-c2ccc3oc(N)nc3c2)c2c(N)ncnc21 + C=CC(=O)N1CCN(c2nc(OCC3CCCN3C)nc3c2CCN(c2cccc4cccc(C)c24)C3)CC1CC#N	16.1
CC(C)n1nc(-c2ccc3oc(N)nc3c2)c2c(N)ncnc21 + CC1OCC2(CCN(c3cnc(Sc4ccnc(N)c4Cl)c(N)n3)CC2)C1N	32.5
